System: CAKI-1 renal
assay_summary: NCI-60 one-dose screen, 48 h
measurement_context: 10 µM unless noted
The panel holds about 83,000 compounds, 20% with a hit somewhere; the sample as a whole holds those more often. Activity calls are given as the source filed them. The calls were made as follows: active = growth percent below 10; inactive = the rest.
API: response.call in label 1 for active, label 0 for inactive

# fetch the recorded call for `Cn1ncc(Cl)c1-c1cc(C(=O)N[C@H](CN)Cc2cccc(F)c2)sc1Cl` here
label 0

# fetch the recorded call for `CCCCCCCCCNCCCCCCCCC` here
label 0

# fetch the recorded call for `Cc1ccc(Nc2nccc(N(C)c3ccc4c(C)n(C)nc4c3)n2)cc1S(N)(=O)=O` here
label 0

# fetch the recorded call for `CN1CC[C@H](c2c(O)cc(O)c3c(=O)cc(-c4ccccc4Cl)oc23)[C@H](O)C1` here
label 0

# fetch the recorded call for `COc1ccc(F)c(F)c1C(=O)c1cnc(NC2CCN(S(C)(=O)=O)CC2)nc1N` here
label 0

# fetch the recorded call for O=C1C=CC2(NN=C(c3ccccc3)N2c2ccc(Cl)cc2)c2cccc(O)c21 (stereo not given) here
label 0

# fetch the recorded call for `Cc1cc([C@@H](C)Nc2ccccc2C(=O)O)c2nc(N3CCOCC3)cc(=O)n2c1` here
label 0

# fetch the recorded call for CC(N)C(Cc1ccc(Cl)cc1)c1ccc(Cl)cc1 (stereo not given) here
label 0

# fetch the recorded call for `CC(C)c1cc(CNc2nc(Nc3cc(C4CC4)[nH]n3)cc(N3CCN(C)CC3)n2)on1` here
label 1

# fetch the recorded call for `COc1cc(N2CCC(N3CCN(C)CC3)CC2)ccc1Nc1ncnc(Nc2ccccc2S(=O)(=O)C(C)C)n1` here
label 0
